Numbers sourced from ChEMBL document CHEMBL4270513.

molecular target: Melanocyte-stimulating hormone receptor (Homo sapiens); test: Displacement of [125I]-[Nle4,d-Phe7]-alpha-MSH from human MC1R expressed in HEK293 cells at 10 uM after 40 mins by gamma counting analysis relative to control; assay type: cell-based
Sequence (Q01726 whole entry, looked up): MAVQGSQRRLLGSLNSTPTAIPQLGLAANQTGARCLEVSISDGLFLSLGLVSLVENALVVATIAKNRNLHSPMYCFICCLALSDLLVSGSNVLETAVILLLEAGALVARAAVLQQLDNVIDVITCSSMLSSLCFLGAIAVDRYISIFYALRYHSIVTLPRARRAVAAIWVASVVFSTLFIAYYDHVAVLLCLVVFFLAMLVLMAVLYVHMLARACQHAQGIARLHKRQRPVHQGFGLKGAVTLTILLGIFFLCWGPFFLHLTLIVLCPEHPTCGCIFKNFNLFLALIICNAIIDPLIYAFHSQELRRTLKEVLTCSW
Square brackets hold non-standard residues; d marks the D form. Peptide text beside a SMILES is read from it. dPhe(4-Br) = N[C@H](Cc1ccc(Br)cc1)C(=O)O; dPhe(4-Cl) = N[C@H](Cc1ccc(Cl)cc1)C(=O)O; dPhe(4-F) = N[C@H](Cc1ccc(F)cc1)C(=O)O; Nle = CCCC[C@H](N)C(=O)O
endpoint: %max (%)
Express your answer in %, writing the number without its unit.

1) CCCC[C@H](NC(=O)[C@@H](Cc1ccc(Cl)cc1)NC(=O)[C@@H]1CCCN1C(C)=O)C(=O)N[C@@H](Cc1c[nH]c2ccccc12)C(N)=O (Ac-P[dPhe(4-Cl)][Nle]W-NH2)    18

[Q] I would be grateful if you could share the reported %max for CCCC[C@H](NC(=O)[C@@H](Cc1ccc(Br)cc1)NC(=O)[C@@H]1CCCN1C(C)=O)C(=O)N[C@@H](Cc1c[nH]c2ccccc12)C(N)=O (Ac-P[dPhe(4-Br)][Nle]W-NH2) .
[A] 30

[Q] I would be grateful if you could share the reported %max for CCCC[C@H](NC(=O)[C@@H](Cc1ccc(F)cc1)NC(=O)[C@H](Cc1cnc[nH]1)NC(C)=O)C(=O)N[C@@H](Cc1c[nH]c2ccccc12)C(N)=O (Ac-H[dPhe(4-F)][Nle]W-NH2) .
[A] 33

----------
biological target: Melanocortin receptor 4 (Homo sapiens, UniProt P32245); experiment: Displacement of [125I]-[Nle4,d-Phe7]-alpha-MSH from human MC4R expressed in HEK293 cells after 40 mins by gamma counting analysis
Sequence (P32245 whole entry): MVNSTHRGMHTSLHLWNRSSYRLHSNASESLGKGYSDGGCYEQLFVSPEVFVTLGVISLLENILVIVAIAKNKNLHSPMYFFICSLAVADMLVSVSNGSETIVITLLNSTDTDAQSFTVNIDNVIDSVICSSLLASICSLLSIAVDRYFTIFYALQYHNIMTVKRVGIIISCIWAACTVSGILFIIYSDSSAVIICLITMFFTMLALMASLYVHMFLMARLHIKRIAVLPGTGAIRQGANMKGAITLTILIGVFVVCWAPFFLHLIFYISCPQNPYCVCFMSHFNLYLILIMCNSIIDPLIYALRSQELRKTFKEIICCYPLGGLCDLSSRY
Square brackets hold non-standard residues; d marks the D form. Peptide text beside a SMILES is read from it. dPhe(4-CF3) = N[C@H](Cc1ccc(C(F)(F)F)cc1)C(=O)O; dPhe(4-Br) = N[C@H](Cc1ccc(Br)cc1)C(=O)O; Nle = CCCC[C@H](N)C(=O)O
endpoint: IC50 (nM)
Express your answer in nM, writing the number without its unit.

1. CCCC[C@H](NC(=O)[C@@H](Cc1ccc(Br)cc1)NC(=O)[C@@H]1CCCN1C(C)=O)C(=O)N[C@@H](Cc1c[nH]c2ccccc12)C(N)=O (Ac-P[dPhe(4-Br)][Nle]W-NH2)    10

[Q] I would be grateful if you could share the reported IC50 for CCCC[C@H](NC(=O)[C@@H](Cc1ccc(C(F)(F)F)cc1)NC(=O)[C@H](Cc1cnc[nH]1)NC(C)=O)C(=O)N[C@@H](Cc1c[nH]c2ccccc12)C(N)=O (Ac-H[dPhe(4-CF3)][Nle]W-NH2) .
[A] 835

[Q] I would be grateful if you could share the reported IC50 for CCCC[C@H](NC(=O)[C@@H](Cc1ccccc1)NC(=O)[C@H](Cc1cnc[nH]1)NC(C)=O)C(=O)N[C@@H](Cc1c[nH]c2ccccc12)C(N)=O (Ac-H[dF][Nle]W-NH2) .
[A] 65

----------
Reported Activity is given for each of the following compounds.
molecular target: Melanocortin receptor 5 (Homo sapiens, UniProt P33032); assay: Agonist activity at human MC5R expressed in HEK293 cells at 10 uM after 3 mins by cAMP assay relative to MT-2; format: functional, cell-based
Sequence (P33032 whole entry): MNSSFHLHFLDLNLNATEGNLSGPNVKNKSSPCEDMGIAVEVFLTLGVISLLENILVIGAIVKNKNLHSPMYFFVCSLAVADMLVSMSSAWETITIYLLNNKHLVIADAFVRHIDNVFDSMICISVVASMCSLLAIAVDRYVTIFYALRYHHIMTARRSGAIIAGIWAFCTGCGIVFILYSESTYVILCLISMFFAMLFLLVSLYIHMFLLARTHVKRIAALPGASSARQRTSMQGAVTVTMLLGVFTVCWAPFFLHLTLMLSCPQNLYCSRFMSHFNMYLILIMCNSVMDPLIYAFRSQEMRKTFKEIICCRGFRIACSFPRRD
Square brackets hold non-standard residues; d marks the D form. Peptide text beside a SMILES is read from it. dPhe(4-Br) = N[C@H](Cc1ccc(Br)cc1)C(=O)O; dPhe(4-Cl) = N[C@H](Cc1ccc(Cl)cc1)C(=O)O; dPhe(4-F) = N[C@H](Cc1ccc(F)cc1)C(=O)O; d2Nal = N[C@H](Cc1ccc2ccccc2c1)C(=O)O; Nle = CCCC[C@H](N)C(=O)O
Express your answer in %, writing the number without its unit.

Illustrative cases are given below, each with its answer.
1. CCCC[C@H](NC(=O)[C@@H](Cc1ccccc1)NC(=O)[C@H](Cc1cnc[nH]1)NC(C)=O)C(=O)N[C@@H](Cc1c[nH]c2ccccc12)C(N)=O (Ac-H[dF][Nle]W-NH2)    48
2. CCCC[C@H](NC(=O)[C@@H](Cc1ccc(Cl)cc1)NC(=O)[C@H](Cc1cnc[nH]1)NC(C)=O)C(=O)N[C@@H](Cc1c[nH]c2ccccc12)C(N)=O (Ac-H[dPhe(4-Cl)][Nle]W-NH2)    52
3. CCCC[C@H](NC(=O)[C@@H](Cc1ccc2ccccc2c1)NC(=O)[C@H](Cc1cnc[nH]1)NC(C)=O)C(=O)N[C@@H](Cc1c[nH]c2ccccc12)C(N)=O (Ac-H[d2Nal][Nle]W-NH2)    0
4. CCCC[C@H](NC(=O)[C@@H](Cc1ccc(F)cc1)NC(=O)[C@H](Cc1cnc[nH]1)NC(C)=O)C(=O)N[C@@H](Cc1c[nH]c2ccccc12)C(N)=O (Ac-H[dPhe(4-F)][Nle]W-NH2)    0

Kindly consider the entry below.
[Q] I would be grateful if you could share the reported Activity for CCCC[C@H](NC(=O)[C@@H](Cc1ccc(Br)cc1)NC(=O)[C@H](Cc1cnc[nH]1)NC(C)=O)C(=O)N[C@@H](Cc1c[nH]c2ccccc12)C(N)=O (Ac-H[dPhe(4-Br)][Nle]W-NH2) .
[A] 33
